The reported numbers originate from ChEMBL document CHEMBL1157144.

Documented MIC across a set of molecules
Test system: Staphylococcus aureus
EXPERIMENT: Antibacterial activity against susceptible Staphylococcus aureus after 20 hrs by agar dilution method
Assay type: functional
Write the value in µg/mL as a bare number.

Study these solved cases before continuing.
* CCC(=O)O[C@@H]1CC(=O)O[C@H](C)C[C@H](O)[C@H](N(C)CCCc2ccccc2)/C=C/[C@H](OC(C)=O)[C@H](C)C[C@H](CC=O)[C@H](O[C@@H]2O[C@H](C)[C@@H](O[C@H]3C[C@@](C)(O)[C@@H](OC(=O)CC)[C@H](C)O3)[C@H](N(C)C)[C@H]2O)[C@H]1OC | 0.2
* CCC(=O)O[C@@H]1CC(=O)O[C@H](C)C[C@H](O)[C@H](N(C)CCCn2cnc(-c3cccnc3)c2)/C=C/[C@H](OC(C)=O)[C@H](C)C[C@H](CC=O)[C@H](O[C@@H]2O[C@H](C)[C@@H](O[C@H]3C[C@@](C)(O)[C@@H](OC(=O)CC)[C@H](C)O3)[C@H](N(C)C)[C@H]2O)[C@H]1OC | 0.2
* CCC(=O)O[C@@H]1CC(=O)O[C@H](C)C[C@H](O)[C@H](N(C)Cc2ccccc2)/C=C/[C@H](OC(C)=O)[C@H](C)C[C@H](CC=O)[C@H](O[C@@H]2O[C@H](C)[C@@H](O[C@H]3C[C@@](C)(O)[C@@H](OC(=O)CC)[C@H](C)O3)[C@H](N(C)C)[C@H]2O)[C@H]1OC | 0.39
* CCC(=O)O[C@@H]1CC(=O)O[C@H](C)C[C@H](O)[C@H](N(C)CCCc2ccccc2)/C=C/[C@H](OC(C)=O)[C@H](C)C[C@H](CC=O)[C@H](O[C@@H]2O[C@H](C)[C@@H](O[C@H]3C[C@@](C)(OC(C)=O)[C@@H](OC(=O)CC)[C@H](C)O3)[C@H](N(C)C)[C@H]2O)[C@H]1OC | 0.39

Asked: Need MIC of `CCC(=O)O[C@@H]1CC(=O)O[C@H](C)C[C@H](O)[C@H](N(C)CCCCCc2ccccc2)/C=C/[C@H](OC(C)=O)[C@H](C)C[C@H](CC=O)[C@H](O[C@@H]2O[C@H](C)[C@@H](O[C@H]3C[C@@](C)(O)[C@@H](OC(=O)CC)[C@H](C)O3)[C@H](N(C)C)[C@H]2O)[C@H]1OC` , thanks.
Given back: 0.39

Asked: Next: `CCC(=O)O[C@@H]1CC(=O)O[C@H](C)C[C@H](O)[C@H](N(C)CCc2ccccc2)/C=C/[C@H](OC(C)=O)[C@H](C)C[C@H](CC=O)[C@H](O[C@@H]2O[C@H](C)[C@@H](O[C@H]3C[C@@](C)(O)[C@@H](OC(=O)CC)[C@H](C)O3)[C@H](N(C)C)[C@H]2O)[C@H]1OC`
Given back: 0.39

Asked: Next: `CCC(=O)O[C@@H]1CC(=O)O[C@H](C)C[C@H](O)[C@H](N(C)CCCc2ccnc3ccccc23)/C=C/[C@H](OC(C)=O)[C@H](C)C[C@H](CC=O)[C@H](O[C@@H]2O[C@H](C)[C@@H](O[C@H]3C[C@@](C)(O)[C@@H](OC(=O)CC)[C@H](C)O3)[C@H](N(C)C)[C@H]2O)[C@H]1OC`
Given back: 0.1

Asked: Next: CC[C@H]1OC(=O)[C@H](C)[C@@H](O[C@H]2C[C@@](C)(OC)[C@@H](O)[C@H](C)O2)[C@H](C)[C@@H](O[C@@H]2O[C@H](C)C[C@H](N(C)C)[C@H]2O)[C@](C)(OC)C[C@@H](C)C(=O)[C@H](C)[C@@H](O)[C@]1(C)O [CLARITHROMYCIN]
Given back: 0.1

Asked: Next: `CCC(=O)O[C@@H]1CC(=O)O[C@H](C)C[C@H](O)[C@H](N(C)CCCc2ccncc2)/C=C/[C@H](OC(C)=O)[C@H](C)C[C@H](CC=O)[C@H](O[C@@H]2O[C@H](C)[C@@H](O)[C@H](N(C)C)[C@H]2O)[C@H]1OC`
Given back: 1.56

Asked: Next: `CCC(=O)O[C@@H]1CC(=O)O[C@H](C)C[C@H](O)[C@H](N(C)C)/C=C/[C@H](OC(C)=O)[C@H](C)C[C@H](CC=O)[C@H](O[C@@H]2O[C@H](C)[C@@H](O[C@H]3C[C@@](C)(O)[C@@H](OC(=O)CC)[C@H](C)O3)[C@H](N(C)C)[C@H]2O)[C@H]1OC`
Given back: 0.78

Asked: Next: `CCC(=O)O[C@@H]1CC(=O)O[C@H](C)C[C@@H]2OC(=O)N(CCCCc3ccccc3)[C@@H]2/C=C/[C@H](OC(C)=O)[C@H](C)C[C@H](CC=O)[C@H](O[C@@H]2O[C@H](C)[C@@H](O[C@H]3C[C@@](C)(O)[C@@H](OC(=O)CC)[C@H](C)O3)[C@H](N(C)C)[C@H]2O)[C@H]1OC`
Given back: 0.39

Asked: Next: `CCC(=O)O[C@@H]1CC(=O)O[C@H](C)C[C@@H]2OC(=O)N(Cc3ccccc3)[C@@H]2/C=C/[C@H](OC(C)=O)[C@H](C)C[C@H](CC=O)[C@H](O[C@@H]2O[C@H](C)[C@@H](O[C@H]3C[C@@](C)(O)[C@@H](OC(=O)CC)[C@H](C)O3)[C@H](N(C)C)[C@H]2O)[C@H]1OC`
Given back: 0.39

Asked: Next: `CCC(=O)O[C@@H]1CC(=O)O[C@H](C)C[C@H](O)[C@H](N(C)CCCc2ccncc2)/C=C/[C@H](OC(C)=O)[C@H](C)C[C@H](CC=O)[C@H](O[C@@H]2O[C@H](C)[C@@H](O[C@H]3C[C@@](C)(O)[C@@H](OC(=O)CC)[C@H](C)O3)[C@H](N(C)C)[C@H]2O)[C@H]1OC`
Given back: 0.2

Asked: Next: `CCC(=O)O[C@@H]1CC(=O)O[C@H](C)C/C=C/C=C/[C@H](OC(C)=O)[C@H](C)C[C@H](CC=O)[C@H](O[C@@H]2O[C@H](C)[C@@H](O[C@H]3C[C@@](C)(O)[C@@H](OC(=O)CC)[C@H](C)O3)[C@H](N(C)C)[C@H]2O)[C@H]1OC`
Given back: 0.39

Asked: Next: `CCC(=O)O[C@@H]1CC(=O)O[C@H](C)C[C@H](O)[C@H](N(C)CCCCCCCc2ccccc2)/C=C/[C@H](OC(C)=O)[C@H](C)C[C@H](CC=O)[C@H](O[C@@H]2O[C@H](C)[C@@H](O[C@H]3C[C@@](C)(O)[C@@H](OC(=O)CC)[C@H](C)O3)[C@H](N(C)C)[C@H]2O)[C@H]1OC`
Given back: 0.78
